Readings of interaction score for the listed binders
Molecular target: T1, 4H1899-bA
T1 chain: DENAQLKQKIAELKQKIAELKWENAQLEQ
Assay: two-hybrid library CCNG1;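 also: natural log of median RNA to DNA barcode read ratio; higher means stronger binding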
ASSAY_METRIC: interaction score

| BINDER | ASSAY_METRIC | TEST_RESULT |
| --- | --- | --- |
| DENAQLEQKIAELEQKNAELKWEIAQLKQ [4H1338-bA] | interaction score | -0.794 |
| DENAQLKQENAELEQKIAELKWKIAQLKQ [4H1710-bA] | interaction score | -0.115 |
| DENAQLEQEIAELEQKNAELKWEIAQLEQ [4H1081-bA] | interaction score | -0.763 |
| DENAQLKQEIAELEQEIAELEWKNAQLKQ [4H1544-bA] | interaction score | 1.52 |
| DENAQLEQKIAELKQEIAELEWENAQLKQ [4H1348-bA] | interaction score | 1.63 |
| DENAQLKQKIAELKQKIAELKWENAQLEQ [4H1899-bA] | interaction score | -0.612 |
| DENAQLEQKIAELKQENAELKWKIAQLEQ [4H1373-bA] | interaction score | -1.03 |
| DENAQLEQENAELKQEIAELEWKIAQLKQ [4H1222-bA] | interaction score | 1.1 |
| DENAQLEQKNAELEQKIAELKWEIAQLEQ [4H1449-bA] | interaction score | -0.25 |

Reference source for all entries: paper PMC10397247
